Field: percent of parent. Provide a value for each of the variants that follow.
B1: Cas3 of E. coli K12 Type I-E CRISPR/Cas complex [E. coli K12] / Cas1 of E. coli K12 Type I-E CRISPR/Cas complex [E. coli K12] (parent complex)
chain 1: MEPFKYICHYWGKSSKSLTKGNDIHLLIYHCLDVAAVADCWWDQSVVLQNTFCRNEMLSKQRVKAWLLFFIALHDIGKFDIRFQYKSAESWLKLNPATPSLNGPSTQMCRKFNHGAAGLYWFNQDSLSEQSLGDFFSFFDAAPHPYESWFPWVEAVTGHHGFILHSQDQDKSRWEMPASLASYAAQDKQAREEWISVLEALFLTPAGLSINDIPPDCSSLLAGFCSLADWLGSWTTTNTFLFNEDAPSDINALRTYFQDRQQDASRVLELSGLVSNKRCYEGVHALLDNGYQPRQLQVLVDALPVAPGLTVIEAPTGSGKTETALAYAWKLIDQQIADSVIFALPTQATANAMLTRMEASASHLFSSPNLILAHGNSRFNHLFQSIKSRAITEQGQEEAWVQCCQWLSQSNKKVFLGQIGVCTIDQVLISVLPVKHRFIRGLGIGRSVLIVDEVHAYDTYMNGLLEAVLKAQADVGGSVILLSATLPMKQKQKLLDTYGLHTDPVENNSAYPLINWRGVNGAQRFDLLAHPEQLPPRFSIQPEPICLADMLPDLTMLERMIAAANAGAQVCLICNLVDVAQVCYQRLKELNNTQVDIDLFHARFTLNDRREKENRVISNFGKNGKRNVGRILVATQVVEQSLDVDFDWLITQHCPADLLFQRLGRLHRHHRKYRPAGFEIPVATILLPDGEGYGRHEHIYSNVRVMWRTQQHIEELNGASLFFPDAYRQWLDSIYDDAEMDEPEWVGNGMDKFESAECEKRFKARKVLQWAEEYSLQDNDETILAVTRDGEMSLPLLPYVQTSSGKQLLDGQVYEDLSHEQQYEALALNRVNVPFTWKRSFSEVVDEDGLLWLEGKQNLDGWVWQGNSIVITYTGDEGMTRVIPANPK
chain 2: MTWLPLNPIPLKDRVSMIFLQYGQIDVIDGAFVLIDKTGIRTHIPVGSVACIMLEPGTRVSHAAVRLAAQVGTLLVWVGEAGVRVYASGQPGGARSDKLLYQAKLALDEDLRLKVVRKMFELRFGEPAPARRSVEQLRGIEGSRVRATYALLAKQYGVTWNGRRYDPKDWEKGDTINQCISAATSCLYGVTEAAILAAGYAPAIGFVHTGKPLSFVYDIADIIKFDTVVPKAFEIARRNPGEPDREVRLACRDIFRSSKTLAKLIPLIEDVLAAGEIQPPAPPEDAQPVAIPLPVSLGDAGHRSS

- Variants of: B1
- experiment-summary: SPEC system (split protease-E. coli ClpXP) in E. coli cells; parent: 100; read off a plot

// below: answered variants
chain 1 H74A | ~60%
chain 1 D452N | ~130%
chain 1 K78A | ~50%
chain 1 S483A, chain 1 T485A | ~110%

Shifting focus to the variant that follows.
Tell us which percent of parent value is on record for chain 1 K320N
~120%

Just for reference, paper PMC8260793 is where these values come from.
